# maps each entry to its Kd
# Target desc: T1, human SIRP-α v2 (human)
# T1 construct: also called Human v2; Human V2
# T1 sequence (chain, as listed by the source limits assumed): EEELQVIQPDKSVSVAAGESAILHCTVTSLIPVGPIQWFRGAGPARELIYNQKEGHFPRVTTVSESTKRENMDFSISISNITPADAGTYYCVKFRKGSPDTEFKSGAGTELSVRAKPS
# Experimental protocol: SPR
Result type: Kd (nM)

Binder	Result type	Modifier sign	Reported value
antibody 173 (antibody, V domains shown, also called S173) VH: DVQLVESGGGVVRPGESLRLSCAASGFAFSDHDMSWVRQGPGEGLEWVAGISLRGGVTWYADSVKGRFTISRDNSKNTLYLRLFSLRTEDTAIYYCARESWNTFFDYWGLGTLVTVSS VL: EIVLTQSPGTLSLSPGETATLSCRASQNVRSNLAWYQQKPGQAPRLLIYDASSRATGIPDRFSGSGSGTDFTLTISSLQSEDFAVYYCQQYGNGPPLTFGGGTKVEIK	Kd	=	9.28
antibody 213 (antibody, V domains shown, also called S213) VH: DVQLVESGGGVVRPGESLRLSCEASGFTFRNYYMTWVRQAPGEGLEWVSTISDTGDTAYYADSVKGRFTISRDNSKNSLYLQMNSLRADDTAIYYCAKSWIWWTFFDYWGLGTLVTVSS VL: ALTQPASVSANLGGTVEITCSGGNSNHYGWYQQKSPGSAPVTLIYADTNRPSNIPSRFSGSTSGSTTTLTITGVQAEDEAVYYCGGSSTGDGIFGAGTTLTVL	Kd	=	1.69
antibody 21 (antibody, V domains shown, also called AB21; S21) VH: DVQLVESGGGVVRPGESLRLSCAASGFTFSSNAMSWVRQAPGKGLEWLAGISAGGSDTYYPASVKGRFTISRDNSKNTLYLQMNTLTAEDTAVYYCARETWNHLFDYWGLGTLVTVSS VL: ALTQPASVSANPGETVKIACSGGDYYSYYYGWYQQKAPGSALVTVIYSDDKRPSDIPSRFSGSASGSTATLTITGVRAEDEAVYYCGGYDYSTYANAFGAGTTLTVL	Kd	<	0.001
antibody 201 (antibody, V domains shown, also called S201) VH: DVQLVESGGAVVRPGETLRLSCTASGFTFSSYAMSWVRQAPGKGLEWVSGISASGSDTYYADSVKGRSTISRDNSKNTLYLRMSSLTAEDTAVYYCARETWNHLFDYWGLGTLVTVSS VL: ALTQPASVSANPGETVKITCSGGGTSSYYGWYQQKSPGSAPVTLIHSDDKRPSDIPSRFSGSASGSTATLTITGVQVEDEAVYYCGGYDYTTYVNTFGAGTTLTVL	Kd	=	0.00487
